B1: KRT13 (parent)
chain: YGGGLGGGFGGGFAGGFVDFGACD

# Variants of: B1
# Assay Name: protein stability index of a GFP-peptide fusion (GPS, HEK-293T) (PSI 1-6); higher = more stable;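 also: lentivirally expressed fusions sorted by FACS into six bins by GFP to DsRed ratio, PSI derived from sequencing read proportions per bin multiplied by bin number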
# Experimental Conditions: c terminus: a fixed tail appended
Measured Metric: protein stability index

> print(dat)
   sequence.change          measured.metric  measured
1             G10E  protein stability index      1.96
2             F17K  protein stability index      1.96
3             G10F  protein stability index      2.02

meta.source: the supplement of paper PMC10567573
